# tested_target: ESb mouse lymphoma heparanase (Mus musculus, UniProt Q6YGZ1)
# Construct: endogenous in cells; host or cells: ESb mouse lymphoma cells
# Sequence (Q6YGZ1 28-535): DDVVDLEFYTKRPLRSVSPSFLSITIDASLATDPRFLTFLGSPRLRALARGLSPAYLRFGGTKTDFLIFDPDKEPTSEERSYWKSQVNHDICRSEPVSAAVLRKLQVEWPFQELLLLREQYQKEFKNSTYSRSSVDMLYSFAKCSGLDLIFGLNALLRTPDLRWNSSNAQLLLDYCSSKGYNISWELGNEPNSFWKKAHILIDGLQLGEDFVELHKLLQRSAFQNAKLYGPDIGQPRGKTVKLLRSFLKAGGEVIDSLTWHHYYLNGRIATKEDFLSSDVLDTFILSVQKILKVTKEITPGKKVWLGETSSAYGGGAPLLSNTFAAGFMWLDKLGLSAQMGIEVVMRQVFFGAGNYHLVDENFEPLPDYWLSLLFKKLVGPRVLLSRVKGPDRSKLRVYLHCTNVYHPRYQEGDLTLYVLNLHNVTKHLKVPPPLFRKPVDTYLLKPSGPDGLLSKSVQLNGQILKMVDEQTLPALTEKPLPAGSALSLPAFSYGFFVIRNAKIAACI
# protocol_details: Inhibition of heparanase activity (degradation of labeled ECM heparan sulfate)
# Format: biochemical
# test_settings: 24 hours incubation with labeled ECM
measure: % Inhibition of Heparanase Activity (5µg/ml) (%)
Give the quantity in %, number only.

% Inhibition of Heparanase Activity (5µg/ml) reported for this compound COc1cc(Cc2cc(CCC(=O)O)c(C)cc2O)c(CCC(=O)O)cc1Cc1cc(OC)c(Cc2cc(OC)c(Cc3cc(OC)c(Cc4cc(OC)c(Cc5cc(OC)c(Cc6cc(OC)c(Cc7cc(OC)c(Cc8cc(OC)c(Cc9cc(OC)c(Cc%10cc(OC)c(Cc%11cc(OC)c(Cc%12cc(OC)c(Cc%13cc(OC)c(Cc%14cc(O)ccc%14CCC(=O)O)cc%13CCC(=O)O)cc%12CCC(=O)O)cc%11CCC(=O)O)cc%10CCC(=O)O)cc9CCC(=O)O)cc8CCC(=O)O)cc7CCC(=O)O)cc6CCC(=O)O)cc5CCC(=O)O)cc4CCC(=O)O)cc3CCC(=O)O)cc2CCC(=O)O)cc1CCC(=O)O : 70

* * *

# key: entry, value: APTT ICDCT
# Test system: normal pooled plasma
# protocol_details: Anticoagulation activity, Activated Partial Thromboplastin Time (APTT) test
# test_settings: concentration required to double clotting time
Give the quantity in µg/mL, number only.

# count of solved cases: 2
1) O=C(O)CCc1cc(Cc2cc(O)ccc2CCC(=O)O)c(O)cc1CCc1cc(O)c(Cc2cc(O)ccc2CCC(=O)O)cc1CCC(=O)O ... 700
2) O=C(O)COc1cc(Cc2cc(OCc3ccccc3)ccc2OCC(=O)O)c(O)cc1CCc1cc(O)c(Cc2cc(OCc3ccccc3)ccc2OCC(=O)O)cc1OCC(=O)O ... 555

Please find the next compound below.
APTT ICDCT reported for this compound COc1cc(CCc2cc(OC)c(Cc3cc(OC)c(Cc4cc(OC)c(Cc5cc(O)ccc5CCC(=O)O)cc4CCC(=O)O)cc3CCC(=O)O)cc2CCC(=O)O)c(CCC(=O)O)cc1Cc1cc(OC)c(Cc2cc(OC)c(Cc3cc(O)ccc3CCC(=O)O)cc2CCC(=O)O)cc1CCC(=O)O : 500

* * *

# Tested on: normal pooled plasma
# protocol_details: Anticoagulation activity, Activated Partial Thromboplastin Time (APTT) test
# test_settings: concentration required to double clotting time
# key: entry, value: APTT ICDCT
Give the quantity in µg/mL, number only.

1) O=C(O)COc1cc(Cc2cc(OCc3ccccc3)c(Cc3cc(OCc4ccccc4)c(Cc4cc(OCc5ccccc5)c(Cc5cc(OCc6ccccc6)c(Cc6cc(O)ccc6OCC(=O)O)cc5OCC(=O)O)cc4OCC(=O)O)cc3OCC(=O)O)cc2OCC(=O)O)c(OCc2ccccc2)cc1CO [Ex 19] ... 345

Please find the next compound below.
APTT ICDCT reported for this compound COc1cc(Cc2cc(CCC(=O)O)c(C)cc2O)c(CCC(=O)O)cc1Cc1cc(OC)c(Cc2cc(OC)c(Cc3cc(OC)c(Cc4cc(OC)c(Cc5cc(OC)c(Cc6cc(OC)c(Cc7cc(OC)c(Cc8cc(OC)c(Cc9cc(OC)c(Cc%10cc(OC)c(Cc%11cc(OC)c(Cc%12cc(OC)c(Cc%13cc(OC)c(Cc%14cc(O)ccc%14CCC(=O)O)cc%13CCC(=O)O)cc%12CCC(=O)O)cc%11CCC(=O)O)cc%10CCC(=O)O)cc9CCC(=O)O)cc8CCC(=O)O)cc7CCC(=O)O)cc6CCC(=O)O)cc5CCC(=O)O)cc4CCC(=O)O)cc3CCC(=O)O)cc2CCC(=O)O)cc1CCC(=O)O [Ex 8] : 35

* * *

# tested_target: vWF Binding to Gp1b (Homo sapiens, UniProt P04275+P07359)
# Construct: multimeric vWF (isolated from human plasma cryoprecipitate); Formalin-fixed platelets, prepared according to the method of MacFarlane; GPIb on formalin-fixed platelets
# Sequence (P04275 764-2813 limits assumed): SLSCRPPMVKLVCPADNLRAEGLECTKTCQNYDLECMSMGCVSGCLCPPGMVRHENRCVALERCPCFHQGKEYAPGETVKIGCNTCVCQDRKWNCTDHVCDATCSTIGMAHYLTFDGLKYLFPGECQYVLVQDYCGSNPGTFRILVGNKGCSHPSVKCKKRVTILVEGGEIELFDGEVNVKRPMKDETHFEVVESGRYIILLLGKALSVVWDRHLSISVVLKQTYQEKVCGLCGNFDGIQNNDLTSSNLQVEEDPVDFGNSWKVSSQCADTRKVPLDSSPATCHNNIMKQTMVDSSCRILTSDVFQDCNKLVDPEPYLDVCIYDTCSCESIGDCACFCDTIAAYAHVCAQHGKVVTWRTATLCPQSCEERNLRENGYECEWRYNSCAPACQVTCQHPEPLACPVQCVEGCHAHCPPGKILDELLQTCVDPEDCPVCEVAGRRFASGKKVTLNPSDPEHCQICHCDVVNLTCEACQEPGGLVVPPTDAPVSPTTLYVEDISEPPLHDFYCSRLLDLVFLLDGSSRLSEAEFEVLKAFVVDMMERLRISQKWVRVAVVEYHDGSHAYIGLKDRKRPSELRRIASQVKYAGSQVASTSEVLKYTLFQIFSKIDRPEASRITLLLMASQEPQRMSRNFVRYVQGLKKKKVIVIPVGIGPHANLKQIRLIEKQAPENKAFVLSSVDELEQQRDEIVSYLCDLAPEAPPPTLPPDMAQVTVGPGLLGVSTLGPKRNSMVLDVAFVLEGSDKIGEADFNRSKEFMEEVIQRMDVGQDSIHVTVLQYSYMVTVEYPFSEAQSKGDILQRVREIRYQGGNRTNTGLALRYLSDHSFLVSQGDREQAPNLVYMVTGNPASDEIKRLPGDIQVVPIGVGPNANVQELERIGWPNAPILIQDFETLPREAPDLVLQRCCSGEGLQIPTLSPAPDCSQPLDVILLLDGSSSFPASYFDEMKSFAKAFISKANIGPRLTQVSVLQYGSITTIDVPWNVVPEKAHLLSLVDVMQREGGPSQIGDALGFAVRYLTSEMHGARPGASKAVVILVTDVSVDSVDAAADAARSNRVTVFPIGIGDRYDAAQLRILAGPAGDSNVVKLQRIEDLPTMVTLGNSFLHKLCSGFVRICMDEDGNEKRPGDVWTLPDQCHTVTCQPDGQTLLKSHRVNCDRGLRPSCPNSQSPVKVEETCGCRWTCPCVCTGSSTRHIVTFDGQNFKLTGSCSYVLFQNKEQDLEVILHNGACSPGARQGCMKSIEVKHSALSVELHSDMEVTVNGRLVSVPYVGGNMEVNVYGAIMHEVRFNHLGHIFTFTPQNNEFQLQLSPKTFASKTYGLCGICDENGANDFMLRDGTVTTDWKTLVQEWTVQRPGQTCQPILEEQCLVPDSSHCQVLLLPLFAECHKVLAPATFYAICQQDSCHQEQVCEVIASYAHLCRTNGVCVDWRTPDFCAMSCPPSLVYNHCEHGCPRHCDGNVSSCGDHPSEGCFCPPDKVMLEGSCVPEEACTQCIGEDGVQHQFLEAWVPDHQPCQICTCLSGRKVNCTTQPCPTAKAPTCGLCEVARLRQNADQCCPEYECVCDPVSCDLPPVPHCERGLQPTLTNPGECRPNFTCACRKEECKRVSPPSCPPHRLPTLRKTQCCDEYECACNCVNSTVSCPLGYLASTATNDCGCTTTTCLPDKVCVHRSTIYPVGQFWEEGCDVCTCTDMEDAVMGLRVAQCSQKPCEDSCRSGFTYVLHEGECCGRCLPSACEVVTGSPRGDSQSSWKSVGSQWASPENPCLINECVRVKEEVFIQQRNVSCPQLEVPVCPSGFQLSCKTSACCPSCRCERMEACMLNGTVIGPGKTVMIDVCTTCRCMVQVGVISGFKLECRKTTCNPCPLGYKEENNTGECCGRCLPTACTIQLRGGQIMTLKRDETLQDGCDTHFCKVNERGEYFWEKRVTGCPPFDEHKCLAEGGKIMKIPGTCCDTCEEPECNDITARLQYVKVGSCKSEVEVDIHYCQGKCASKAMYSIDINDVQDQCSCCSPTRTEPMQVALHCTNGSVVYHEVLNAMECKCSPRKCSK
# Sequence (P07359 17-652): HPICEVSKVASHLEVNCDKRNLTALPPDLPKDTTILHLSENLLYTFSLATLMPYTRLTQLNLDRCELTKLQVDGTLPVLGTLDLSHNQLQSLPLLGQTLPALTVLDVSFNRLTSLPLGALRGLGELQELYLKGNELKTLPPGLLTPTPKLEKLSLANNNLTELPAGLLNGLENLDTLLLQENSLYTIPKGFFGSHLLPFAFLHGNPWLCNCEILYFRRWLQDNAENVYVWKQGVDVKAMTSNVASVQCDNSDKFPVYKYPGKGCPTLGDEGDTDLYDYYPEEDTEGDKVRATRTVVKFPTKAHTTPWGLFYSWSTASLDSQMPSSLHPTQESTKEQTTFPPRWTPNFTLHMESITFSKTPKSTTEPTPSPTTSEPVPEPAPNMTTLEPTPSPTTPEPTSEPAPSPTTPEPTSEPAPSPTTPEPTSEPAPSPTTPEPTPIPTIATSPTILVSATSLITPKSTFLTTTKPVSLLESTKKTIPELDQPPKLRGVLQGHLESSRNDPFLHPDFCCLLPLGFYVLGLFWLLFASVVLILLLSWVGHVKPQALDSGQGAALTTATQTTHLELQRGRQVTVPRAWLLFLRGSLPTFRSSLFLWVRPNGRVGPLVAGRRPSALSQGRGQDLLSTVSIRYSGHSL
# protocol_details: Inhibition of ristocetin-induced binding of 125I-vWF to formalin-fixed platelets
# test_settings: ristocetin 1.0 mg/ml
measure: IC50

IC50 reported for this molecule O=C(O)CCc1ccc(O)c(Cc2cc(CCC(=O)O)cc(Cc3cc(CCC(=O)O)cc(Cc4cc(CCC(=O)O)ccc4O)c3O)c2O)c1 [Ex 1, Step 3] : > 143 µM

* * *

# key: entry, value: % Inhibition of Heparanase Activity (5µg/ml)
# tested_target: ESb mouse lymphoma heparanase (Mus musculus, UniProt Q6YGZ1)
# Construct: endogenous in cells; host or cells: ESb mouse lymphoma cells
# protocol_details: Inhibition of heparanase activity (degradation of labeled ECM heparan sulfate)
# Type: biochemical
# test_settings: 24 hours incubation with labeled ECM
Give the quantity in %, number only.

# count of solved cases: 3
1) COc1cc(C)c(CCC(=O)O)cc1Cc1cc(OC)c(Cc2cc(OC)c(Cc3cc(OC)c(Cc4cc(OC)c(Cc5cc(OC)c(Cc6cc(OC)c(Cc7cc(O)ccc7CCC(=O)O)cc6CCC(=O)O)cc5CCC(=O)O)cc4CCC(=O)O)cc3CCC(=O)O)cc2CCC(=O)O)cc1CCC(=O)O ... 20
2) Cc1cc(O)c(Cc2cc(O)c(Cc3cc(O)c(Cc4cc(O)c(Cc5cc(O)c(Cc6cc(O)c(Cc7cc(O)c(Cc8cc(O)ccc8CCC(=O)O)cc7CCC(=O)O)cc6CCC(=O)O)cc5CCC(=O)O)cc4CCC(=O)O)cc3CCC(=O)O)cc2CCC(=O)O)cc1CCC(=O)O ... 2
3) Cc1cc(O)c(Cc2cc(O)c(Cc3cc(O)c(Cc4cc(O)c(Cc5cc(O)c(Cc6cc(O)c(Cc7cc(O)c(Cc8cc(O)c(Cc9cc(O)c(Cc%10cc(O)c(Cc%11cc(O)c(Cc%12cc(O)c(Cc%13cc(O)c(Cc%14cc(O)c(Cc%15cc(O)c(Cc%16cc(O)ccc%16CCC(=O)O)cc%15CCC(=O)O)cc%14CCC(=O)O)cc%13CCC(=O)O)cc%12CCC(=O)O)cc%11CCC(=O)O)cc%10CCC(=O)O)cc9CCC(=O)O)cc8CCC(=O)O)cc7CCC(=O)O)cc6CCC(=O)O)cc5CCC(=O)O)cc4CCC(=O)O)cc3CCC(=O)O)cc2CCC(=O)O)cc1CCC(=O)O ... 68

Please find the next compound below.
% Inhibition of Heparanase Activity (5µg/ml) reported for this compound COc1cc(CCc2cc(OC)c(Cc3cc(OC)c(Cc4cc(OC)c(Cc5cc(OC)c(Cc6cc(OC)c(Cc7cc(OC)c(Cc8cc(OC)c(Cc9cc(O)ccc9CCC(=O)O)cc8CCC(=O)O)cc7CCC(=O)O)cc6CCC(=O)O)cc5CCC(=O)O)cc4CCC(=O)O)cc3CCC(=O)O)cc2CCC(=O)O)c(CCC(=O)O)cc1Cc1cc(OC)c(Cc2cc(OC)c(Cc3cc(OC)c(Cc4cc(OC)c(Cc5cc(OC)c(Cc6cc(OC)c(Cc7cc(O)ccc7CCC(=O)O)cc6CCC(=O)O)cc5CCC(=O)O)cc4CCC(=O)O)cc3CCC(=O)O)cc2CCC(=O)O)cc1CCC(=O)O : 52

* * *

# System: normal pooled plasma
# protocol_details: Anticoagulation activity, Activated Partial Thromboplastin Time (APTT) test
# test_settings: concentration required to double clotting time
measure: APTT ICDCT (µg/mL)
Give the quantity in µg/mL, number only.

1. O=C(O)COc1cc(Cc2cc(OCc3ccccc3)c(Cc3cc(OCc4ccccc4)c(Cc4cc(O)ccc4OCC(=O)O)cc3OCC(=O)O)cc2OCC(=O)O)c(OCc2ccccc2)cc1CO ... 360

Please find the next compound below.
APTT ICDCT reported for this compound COc1cc(CCc2cc(OC)c(Cc3cc(OC)c(Cc4cc(OC)c(Cc5cc(OC)c(Cc6cc(OC)c(Cc7cc(OC)c(Cc8cc(OC)c(Cc9cc(O)ccc9CCC(=O)O)cc8CCC(=O)O)cc7CCC(=O)O)cc6CCC(=O)O)cc5CCC(=O)O)cc4CCC(=O)O)cc3CCC(=O)O)cc2CCC(=O)O)c(CCC(=O)O)cc1Cc1cc(OC)c(Cc2cc(OC)c(Cc3cc(OC)c(Cc4cc(OC)c(Cc5cc(OC)c(Cc6cc(OC)c(Cc7cc(O)ccc7CCC(=O)O)cc6CCC(=O)O)cc5CCC(=O)O)cc4CCC(=O)O)cc3CCC(=O)O)cc2CCC(=O)O)cc1CCC(=O)O : 105

* * *

# System: normal pooled plasma
# protocol_details: Anticoagulation activity, Activated Partial Thromboplastin Time (APTT) test
# test_settings: concentration required to double clotting time
# key: entry, value: APTT ICDCT
Give the quantity in µg/mL, number only.

# count of solved cases: 5
1. O=C(O)COc1cc(Cc2cc(O)ccc2OCC(=O)O)c(O)cc1CCc1cc(O)c(Cc2cc(O)ccc2OCC(=O)O)cc1OCC(=O)O ... 580
2. COc1cc(C)c(CCC(=O)O)cc1Cc1cc(OC)c(Cc2cc(OC)c(Cc3cc(OC)c(Cc4cc(OC)c(Cc5cc(OC)c(Cc6cc(OC)c(Cc7cc(O)ccc7CCC(=O)O)cc6CCC(=O)O)cc5CCC(=O)O)cc4CCC(=O)O)cc3CCC(=O)O)cc2CCC(=O)O)cc1CCC(=O)O ... 37
3. O=C(O)CCc1cc(Cc2cc(O)c(Cc3cc(O)c(Cc4cc(O)ccc4CCC(=O)O)cc3CCC(=O)O)cc2CCC(=O)O)c(O)cc1CCc1cc(O)c(Cc2cc(O)c(Cc3cc(O)c(Cc4cc(O)ccc4CCC(=O)O)cc3CCC(=O)O)cc2CCC(=O)O)cc1CCC(=O)O ... 387
4. Cc1cc(O)c(Cc2cc(O)c(Cc3cc(O)c(Cc4cc(O)c(Cc5cc(O)c(Cc6cc(O)c(Cc7cc(O)c(Cc8cc(O)ccc8CCC(=O)O)cc7CCC(=O)O)cc6CCC(=O)O)cc5CCC(=O)O)cc4CCC(=O)O)cc3CCC(=O)O)cc2CCC(=O)O)cc1CCC(=O)O ... 430
5. Cc1cc(O)c(Cc2cc(O)c(Cc3cc(O)c(Cc4cc(O)c(Cc5cc(O)c(Cc6cc(O)c(Cc7cc(O)c(Cc8cc(O)c(Cc9cc(O)c(Cc%10cc(O)c(Cc%11cc(O)c(Cc%12cc(O)c(Cc%13cc(O)c(Cc%14cc(O)c(Cc%15cc(O)c(Cc%16cc(O)ccc%16CCC(=O)O)cc%15CCC(=O)O)cc%14CCC(=O)O)cc%13CCC(=O)O)cc%12CCC(=O)O)cc%11CCC(=O)O)cc%10CCC(=O)O)cc9CCC(=O)O)cc8CCC(=O)O)cc7CCC(=O)O)cc6CCC(=O)O)cc5CCC(=O)O)cc4CCC(=O)O)cc3CCC(=O)O)cc2CCC(=O)O)cc1CCC(=O)O ... 35

APTT ICDCT reported for this molecule CCc1cc(OCC(=O)O)cc(Cc2cc(OCC(=O)O)cc(Cc3cc(OCC(=O)O)cc(Cc4cc(OCC(=O)O)cc(Cc5cc(OCC(=O)O)cc(Cc6cc(OCC(=O)O)cc(Cc7cc(OCC(=O)O)cc(Cc8cc(OCC(=O)O)ccc8OC)c7OC)c6OC)c5OC)c4OC)c3OC)c2OC)c1OC : 300

From: patent EP0585371B1
